Test system: SR leukemia
Experiment: NCI-60 one-dose screen, 48 h (100 = growth as untreated, 0 = no growth, -100 = all killed)
Details: 10 µM unless noted
This is part of a sample that, as a whole, favours compounds with a hit. Of some 83,000 tested, about 20% had one in any assay.
Measured endpoint: growth (%)
Entry rule: numbers only, all in %.

Enter reported growth observed with SR leukemia for COc1ccc(/C=C/c2ccc3ccccc3n2)c(OC)c1 29.4

Enter reported growth observed with SR leukemia for O=C(CCSc1nnc2n(Cc3ccccc3)c(=O)c3c4c(sc3n12)CCCC4)N1CCN(c2ccccc2)CC1 121

Enter reported growth observed with SR leukemia for C=CCC(CCCC)(C(=O)OCC)C(=O)OCC 95.9

Enter reported growth observed with SR leukemia for O=C1c2cccc3cccc(c23)C(=O)N1C/C=C/c1ccc2c3c(cccc13)C(=O)N(CCO)C2=O 67.1

Enter reported growth observed with SR leukemia for CCO/C=N/C1=C(C#N)C(c2ccc(F)cc2)c2sc3c(F)cccc3c2O1 (configuration not stated) 31.8

Enter reported growth observed with SR leukemia for CCOC(=O)c1cnc2c(N=Nc3ccc(OC)cc3)c(N)nn2c1N 112

Enter reported growth observed with SR leukemia for COc1cnc2c(c1)C(=O)c1c-2n(CCCCl)c(=O)c2ccncc12 17.1

Enter reported growth observed with SR leukemia for O=C(Cc1ccccc1)Nc1cccc(N=Cc2ccccc2O)c1 117

Enter reported growth observed with SR leukemia for C=C(CNCCO)[C@@H]1CC[C@]2(CO)CC[C@]3(C)[C@H](CC[C@@H]4[C@@]5(C)CCC(N)C(C)(C)[C@@H]5CC[C@]43C)[C@@H]12 (some centres not stated) -23.1

Enter reported growth observed with SR leukemia for CC[N+]1(CC)CC[N+]2(CCCC(C)CC2)CC1 (configuration not stated) 106

Enter reported growth observed with SR leukemia for CN(C)CCCC1(c2ccc(F)cc2)OCc2cc(-c3ccc4cc[nH]c4c3)ccc21 (configuration not stated) -2.82

Enter reported growth observed with SR leukemia for O=C(O)COc1ccc(Cl)c(Cl)c1 93.7
